The origin of these recorded values is paper PMC6820105.

- tested.target: NURR1/NOT nuclear receptor (Homo sapiens, UniProt P43354)
- Sequence (P43354 whole entry, the tested form may be a part): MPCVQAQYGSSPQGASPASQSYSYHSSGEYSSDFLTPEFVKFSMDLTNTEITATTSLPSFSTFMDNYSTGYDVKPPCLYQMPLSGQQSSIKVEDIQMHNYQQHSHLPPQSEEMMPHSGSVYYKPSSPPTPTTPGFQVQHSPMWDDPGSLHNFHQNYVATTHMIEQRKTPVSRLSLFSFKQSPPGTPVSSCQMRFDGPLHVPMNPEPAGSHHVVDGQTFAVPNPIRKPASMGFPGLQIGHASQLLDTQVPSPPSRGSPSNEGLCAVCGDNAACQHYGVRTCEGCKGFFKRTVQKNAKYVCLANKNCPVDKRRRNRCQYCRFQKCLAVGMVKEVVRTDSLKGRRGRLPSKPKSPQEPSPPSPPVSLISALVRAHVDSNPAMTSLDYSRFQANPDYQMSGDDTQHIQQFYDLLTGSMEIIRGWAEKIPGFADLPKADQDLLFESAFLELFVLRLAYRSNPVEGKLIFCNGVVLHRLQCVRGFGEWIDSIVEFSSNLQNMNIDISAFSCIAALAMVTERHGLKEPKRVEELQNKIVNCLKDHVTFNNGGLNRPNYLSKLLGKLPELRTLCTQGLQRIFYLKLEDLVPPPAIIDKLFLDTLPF
- method: Gal4 reporter gene assay (EC50 / Emax Gal4)
- Type: cell-based
- measurement.context: Table 1, replacements of the hydroxymethyl of cpd 4; read-out: EC50 Gal4
metric.name: EC50 (µM)

1 = NC(=O)c1cccc(-c2ccc3nc(-c4ccc(Cl)cc4)cn3c2)c1
2 = CNC(=O)c1cccc(-c2ccc3nc(-c4ccc(Cl)cc4)cn3c2)c1
Which entry has a larger number for EC50, 1 or 2 ? Let me know the label of the one you choose.
1
(1: 1.58 µM, 2: 0.087 µM)

====

- method: Plasma and heart concentrations after 5-min i.v. administration in anesthetized male Hartley guinea pigs
- Assay type: in vivo
- measurement.context: heart (right and left ventricles), iv, guinea pig, 10 mg/kg 5-min i.v., sampling time 30 min, mean ± SD, n = 6, read-out: Heart concentration
metric.name: concentration at 30 min (ng/g)
Give just the number in ng/g; leave the unit off.

The compound listed as CC(C)(O)c1cccc(-c2ccc3nc(-c4ccc(Cl)cc4)cn3c2)c1 shows concentration at 30 min equal to 6010
